- study_system: segments of rabbit duodenum (Oryctolagus cuniculus)
- Sequence (G1T803 1-400): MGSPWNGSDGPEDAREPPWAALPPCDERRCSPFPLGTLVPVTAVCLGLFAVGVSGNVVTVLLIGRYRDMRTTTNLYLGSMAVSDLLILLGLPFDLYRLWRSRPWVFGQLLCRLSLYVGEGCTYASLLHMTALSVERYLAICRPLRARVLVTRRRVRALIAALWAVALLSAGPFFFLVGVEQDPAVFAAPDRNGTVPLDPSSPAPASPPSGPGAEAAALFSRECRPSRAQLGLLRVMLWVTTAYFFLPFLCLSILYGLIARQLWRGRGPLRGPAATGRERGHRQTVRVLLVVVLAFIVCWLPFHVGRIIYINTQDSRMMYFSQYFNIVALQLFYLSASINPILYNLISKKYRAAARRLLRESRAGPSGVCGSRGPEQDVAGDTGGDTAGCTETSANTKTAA
- test_method_notes: Rabbit duodenal smooth muscle strip tissue bath assay
- Assay type: cell-based
- reported_conditions: negative logarithm of the dose giving 50% of the maximal response to motilin; isotonic contraction of rabbit duodenum segments
Square brackets hold non-standard residues; d marks the D form. Peptide text beside a SMILES is read from it.
Listing of entries alongside the reported pEC50.
Number, no unit, nothing else.

Query string: Return reported pEC50; argument: CC[C@H](C)[C@H](NC(=O)[C@@H]1CCCN1C(=O)[C@@H](NC(=O)[C@@H](N)Cc1ccccc1)C(C)C)C(=O)N[C@@H](Cc1ccccc1)C(=O)N[C@H](C(=O)N[C@@H](Cc1ccccc1)C(=O)NCC(=O)N[C@@H](CCC(=O)O)C(=O)N[C@@H](CC(C)C)C(=O)N[C@@H](CCC(N)=O)C(=O)N[C@H](CCCNC(=N)N)C(=O)N[C@@H](CC(C)C)C(=O)N[C@@H](CCC(N)=O)C(=O)O)[C@@H](C)O [[Phe^7, D-Arg^12, Leu^13]pMOT(1-14)] (H-FVPIFTFGELQ[dR]LQ-OH)
Result string: 6.92

Query string: Name the reported pEC50 value associated with the compound CC[C@H](C)[C@H](NC(=O)[C@@H]1CCCN1C(=O)[C@@H](NC(=O)[C@@H](N)Cc1ccccc1)C(C)C)C(=O)N[C@@H](Cc1ccccc1)C(=O)N[C@H](C(=O)N[C@@H](Cc1ccc(O)cc1)C(=O)NCC(=O)N[C@@H](CCC(=O)O)C(=O)N[C@@H](CC(C)C)C(=O)N[C@@H](CCC(N)=O)C(=O)N[C@H](CC(N)=O)C(=O)N[C@@H](CC(C)C)C(=O)N[C@@H](CCC(N)=O)C(=O)O)[C@@H](C)O [[D-Asn^12, Leu^13]pMOT(1-14)] (H-FVPIFTYGELQ[dN]LQ-OH)
Result string: 6.82

Reference source: patent US5422341A
